procedure_summary: Probe fluorescence ratio response to arachidonic acid relative to ADIFAB2
Format: binding
condition_context: arachidonic acid; response relative to ADIFAB2
endpoint: DR/DR AA
No unit in the answer, please; the number alone is enough.

Would you please look over these solved cases?
18I 31I 55M 73I 72A (protein, listed as Rattus norvegicus, PEPTIDE (1)...(131) wild-type rat intestinal fatty acid binding protein) AFDGTWKVDRNENYEKFIEKMGINVVKRKLIAHDNLKLTITQEGNKFTVKESSNMRNIDVVFELGVDFAYSAIDGTELTGTWTMEGNKLVGKFKRVDNGKELIAVREISGNELIQTYTYEGVEAKRIFKKE	1.354
106N, 72A (protein, listed as Rattus norvegicus, PEPTIDE (1)...(131) wild-type rat intestinal fatty acid binding protein) AFDGTWKVDRNENYEKFMEKMGINVVKRKLGAHDNLKLTITQEGNKFTVKESSNFRNIDVVFELGVDFAYSAADGTELTGTWTMEGNKLVGKFKRVDNGKELIAVNEISGNELIQTYTYEGVEAKRIFKKE	0.384
17C, 72A (protein, listed as Rattus norvegicus, PEPTIDE (1)...(131) wild-type rat intestinal fatty acid binding protein) AFDGTWKVDRNENYEKCMEKMGINVVKRKLGAHDNLKLTITQEGNKFTVKESSNFRNIDVVFELGVDFAYSAADGTELTGTWTMEGNKLVGKFKRVDNGKELIAVREISGNELIQTYTYEGVEAKRIFKKE	0.15

Prompt: What value of DR/DR AA has been recorded for this entry: 72T 74V (protein, listed as Rattus norvegicus, PEPTIDE (1)...(131) wild-type rat intestinal fatty acid binding protein) AFDGTWKVDRNENYEKFMEKMGINVVKRKLGAHDNLKLTITQEGNKFTVKESSNFRNIDVVFELGVDFAYSTAVGTELTGTWTMEGNKLVGKFKRVDNGKELIAVREISGNELIQTYTYEGVEAKRIFKKE
Completion: 2.680

Prompt: Try 102A, 72A (protein, listed as Rattus norvegicus, PEPTIDE (1)...(131) wild-type rat intestinal fatty acid binding protein) AFDGTWKVDRNENYEKFMEKMGINVVKRKLGAHDNLKLTITQEGNKFTVKESSNFRNIDVVFELGVDFAYSAADGTELTGTWTMEGNKLVGKFKRVDNGKEAIAVREISGNELIQTYTYEGVEAKRIFKKE next.
Completion: 0.45

Prompt: Try 104R1, 72A (protein, listed as Rattus norvegicus, PEPTIDE (1)...(131) wild-type rat intestinal fatty acid binding protein) AFDGTWKVDRNENYEKFMEKMGINVVKRKLGAHDNLKLTITQEGNKFTVKESSNFRNIDVVFELGVDFAYSAADGTELTGTWTMEGNKLVGKFKRVDNGKELIRVREISGNELIQTYTYEGVEAKRIFKKE next.
Completion: 1.14
